meta.source: ChEMBL document CHEMBL1201862

Tested target: High affinity choline transporter 1 (Homo sapiens, UniProt Q9GZV3)
Sequence (Q9GZV3 whole entry): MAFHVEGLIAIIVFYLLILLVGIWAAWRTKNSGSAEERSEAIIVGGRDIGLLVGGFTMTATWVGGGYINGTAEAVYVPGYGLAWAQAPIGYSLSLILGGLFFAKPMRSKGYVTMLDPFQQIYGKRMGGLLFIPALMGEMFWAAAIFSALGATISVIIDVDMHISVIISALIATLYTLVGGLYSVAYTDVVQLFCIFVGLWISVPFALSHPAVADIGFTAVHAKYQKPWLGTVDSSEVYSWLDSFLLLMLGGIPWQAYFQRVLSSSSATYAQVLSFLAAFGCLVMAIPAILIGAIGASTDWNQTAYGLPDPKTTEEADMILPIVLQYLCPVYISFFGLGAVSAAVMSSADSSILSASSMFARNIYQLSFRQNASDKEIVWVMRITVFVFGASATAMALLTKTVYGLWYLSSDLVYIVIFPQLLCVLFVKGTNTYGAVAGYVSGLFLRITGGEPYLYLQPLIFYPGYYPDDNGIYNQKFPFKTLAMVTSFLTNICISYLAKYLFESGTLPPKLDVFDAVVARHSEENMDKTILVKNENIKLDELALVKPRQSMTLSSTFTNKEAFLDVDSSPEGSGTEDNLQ
Test summary: CHT inhibitors, dose response, cell-based, 5-point CRC, membrane potential dye (AID 504840)
Assay type: functional
Activity calls are given as the source filed them.
# Lookup of reported IC50 keyed by entry

Query IC50 on High affinity choline transporter 1 (Homo sapiens, UniProt Q9GZV3) for N=C(N)Nc1nc(C2COc3ccccc3O2)cs1 (centres undefined) 12.6 µM (active)

Query IC50 on High affinity choline transporter 1 (Homo sapiens, UniProt Q9GZV3) for CN1CCN(C(=O)CCCN2C(=O)/C(=C/c3ccccc3)SC2=S)CC1 13.5 µM (active)

Query IC50 on High affinity choline transporter 1 (Homo sapiens, UniProt Q9GZV3) for Cc1oc(-c2ccccc2)cc1C(=O)Nc1cccc(/C=C\C(=O)O)c1 11.2 µM (active)

Consider now this further molecule.
Query IC50 on High affinity choline transporter 1 (Homo sapiens, UniProt Q9GZV3) for Oc1ccc(-c2n[nH]c(C(F)(F)F)c2-c2ccccc2)c(O)c1 11 µM (active)

----------
# Lookup of reported EC50 keyed by entry
Tested target: Protein RecA (Mycobacterium tuberculosis, UniProt P9WHJ3)
Sequence (P9WHJ3 whole entry): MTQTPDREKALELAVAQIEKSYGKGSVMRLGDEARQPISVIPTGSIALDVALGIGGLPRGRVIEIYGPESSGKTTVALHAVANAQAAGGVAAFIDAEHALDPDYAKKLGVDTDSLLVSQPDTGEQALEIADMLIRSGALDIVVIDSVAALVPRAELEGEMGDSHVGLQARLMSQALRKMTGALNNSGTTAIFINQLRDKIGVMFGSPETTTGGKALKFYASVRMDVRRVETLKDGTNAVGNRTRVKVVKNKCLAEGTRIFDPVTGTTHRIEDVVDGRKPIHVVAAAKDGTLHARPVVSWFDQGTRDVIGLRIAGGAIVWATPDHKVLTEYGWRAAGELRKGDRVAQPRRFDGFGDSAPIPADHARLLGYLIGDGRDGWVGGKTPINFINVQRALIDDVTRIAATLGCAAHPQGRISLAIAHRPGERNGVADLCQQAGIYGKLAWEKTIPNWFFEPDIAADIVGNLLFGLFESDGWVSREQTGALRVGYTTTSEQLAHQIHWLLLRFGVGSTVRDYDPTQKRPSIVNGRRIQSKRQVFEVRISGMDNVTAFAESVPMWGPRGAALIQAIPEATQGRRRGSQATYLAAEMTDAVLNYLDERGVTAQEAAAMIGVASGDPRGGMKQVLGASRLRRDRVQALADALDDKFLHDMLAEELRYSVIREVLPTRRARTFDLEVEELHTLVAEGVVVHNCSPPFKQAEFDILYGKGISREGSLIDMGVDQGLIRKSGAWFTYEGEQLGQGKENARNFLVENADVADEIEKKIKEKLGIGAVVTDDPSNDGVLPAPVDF
Test summary: Fluorescence Cell-Free Homogeneous Dose Retest to Identify Inhibitors of RecA-Intein Splicing Activity. [Related pubchem assays (depositor defined):AID2097, AID2223, AID489010, AID492950]
Type: functional
The source made the active and inactive calls.

Illustrative cases are given below, each with its answer.
What does the record list as EC50 for COc1ccc(C(=O)Nc2ccc(O)c3ccccc23)cc1OC ? 8400 nM (active)

What does the record list as EC50 for Cc1ccc(C(=O)Oc2ccc([N+](=O)[O-])cc2)cc1S(=O)(=O)N1CCCCCC1 ? 4990 nM (active)

What does the record list as EC50 for CC(=O)Nc1ccccc1NC(=O)C/C(C)=N/NC(=O)C(=O)N1CCCCC1 ? 891 nM (active)

What does the record list as EC50 for CCOc1cc(C(c2c(C)[nH][nH]c2=O)c2c(C)[nH][nH]c2=O)cc([N+](=O)[O-])c1O ? 219 nM (active)

Consider now this further compound.
What does the record list as EC50 for N#CC1=C(N)Oc2[nH]nc(-c3cccs3)c2C1c1ccccc1C(=O)O (stereo not given) ? 1560 nM (active)
